Below, each of the compounds is paired with its reported GI50 value.
assay: in vitro; type: cell-based; conditions: human

{"columns": ["Compound", "Value measured"],
 "data": [
  ["C[C@@H]1NC(=O)[C@H](Cc2c[nH]cn2)NC(=O)[C@H](Cc2ccc(O)cc2)NC(=O)[C@@H]2CCCN2C(=O)CN(CCCCN)C(=O)[C@H](CCCCN)NC(=O)[C@H](CCC(N)=O)NC(=O)[C@H](Cc2ccc(O)cc2)NC(=O)[C@@H]2CSSC[C@H](NC1=O)C(=O)N[C@@H](CO)C(=O)N[C@@H](C)C(=O)N1CCC[C@@H]1C(=O)N[C@@H](CCN)C(=O)N[C@@H](CCCNC(=N)N)C(=O)N[C@@H](Cc1ccc(O)cc1)C(=O)N2", "> 50 µM"]
]}

Req: Suppose we examine the compound C[C@@H]1NC(=O)[C@H](Cc2c[nH]cn2)NC(=O)[C@H](Cc2ccc(O)cc2)NC(=O)[C@@H]2CCCN2C(=O)[C@@H](Cc2ccc(O)cc2)N(C)C(=O)[C@H](CCCCN)NC(=O)[C@H](CCC(N)=O)NC(=O)[C@H](Cc2ccc(O)cc2)NC(=O)[C@@H]2CSSC[C@H](NC1=O)C(=O)N[C@@H](CO)C(=O)N[C@@H](C)C(=O)N1CCC[C@@H]1C(=O)N[C@@H](CCN)C(=O)N[C@@H](CCCNC(=N)N)C(=O)N[C@@H](Cc1ccc(O)cc1)C(=O)N2 ; what GI50 value has been reported?
Resp: > 50 µM

Req: For C[C@@H]1NC(=O)[C@H](Cc2c[nH]cn2)NC(=O)[C@H](Cc2ccc(O)cc2)NC(=O)[C@@H]2CCCN2C(=O)[C@@H](CC2CCCCC2)NC(=O)[C@H](CCCCN)NC(=O)[C@H](CCC(N)=O)NC(=O)[C@H](Cc2ccc(O)cc2)NC(=O)[C@@H]2CSSC[C@H](NC1=O)C(=O)N[C@@H](CO)C(=O)N[C@@H](C)C(=O)N1CCC[C@@H]1C(=O)N[C@@H](CCN)C(=O)N[C@@H](CCCNC(=N)N)C(=O)N[C@@H](Cc1ccc(O)cc1)C(=O)N2 then?
Resp: > 50 µM

###

test: in vitro; format: cell-based
Starred links: 1 amine or outer side, 2 acyl side, 3 side chain; linkers in the order of their positions; H or OH if unused. Positions of bridges follow the written chain, without caps; N, C: chain ends. Non-standard residues stand in square brackets, D forms with d. Residues, ends and D or L forms follow the SMILES beside them. ξ: configuration not given here. X1 = O=C(C(O)CCN[*:1])[*:2]; Dab = NCC[C@H](N)C(=O)O; ξT = CC(O)C(N)C(=O)O
Experimental endpoint: GI50

{"columns": ["Molecule", "Value measured"],
 "data": [
  ["C[C@@H]1NC(=O)[C@H](Cc2c[nH]cn2)NC(=O)[C@H](Cc2ccc(O)cc2)NC(=O)[C@@H]2CCCN2C(=O)[C@H]2CCCN2C(=O)[C@H](CCCCN)NC(=O)[C@H](CCC(N)=O)NC(=O)[C@H](Cc2ccc(O)cc2)NC(=O)[C@@H]2CSSC[C@H](NC1=O)C(=O)NCCC(O)C(=O)N[C@@H](C)C(=O)N1CCC[C@@H]1C(=O)N[C@@H](CCN)C(=O)N[C@@H](CCCNC(=N)N)C(=O)N[C@@H](Cc1ccc(O)cc1)C(=O)N2 (some centres unmarked) [compound 19] (cyclo(YHAC[X1]A[dP][Dab]RYCYQK[dP]P); disulfide 4-11)", "> 50 µM"]
]}

Kindly review the next molecule as well.
Req: State the recorded GI50 for this entry: CC(O)C1NC(=O)[C@@H]2CSSC[C@H](NC(=O)[C@H](Cc3ccc(O)cc3)NC(=O)[C@H](CCCNC(=N)N)NC(=O)[C@H](CCN)NC(=O)[C@H]3CCCN3C(=O)[C@H](C)NC1=O)C(=O)N[C@@H](Cc1ccc(O)cc1)C(=O)N[C@@H](CCC(N)=O)C(=O)N[C@@H](CCCCN)C(=O)N1CCC[C@@H]1C(=O)N1CCC[C@H]1C(=O)N[C@@H](Cc1ccc(O)cc1)C(=O)N[C@@H](Cc1c[nH]cn1)C(=O)N[C@@H](C)C(=O)N2 (some centres unmarked) [compound 17] (cyclo(YHAC[ξT]A[dP][Dab]RYCYQK[dP]P); disulfide 4-11)
Resp: > 50 µM

The values you see were collected from patent US8865656B2.
